# Method Notes: Dose normalized AUC in C57BL/6 mouse at 3 mg/kg, po measured after 0.25 to 24 hrs by LC-MS/MS analysis
# Format: ADME, organism-based
# Experimental Conditions: in vivo, time 0.25-24 hrs
Parameter threshold = 2000 nmol·h/L. Response is Y when AUC/dose meets or exceeds it, else N.

- Molecular String: "O=C(O)Cc1cc(F)ccc1NC(=O)c1cccc(-c2cc(O[C@@H]3CCCNC3)c(Cl)cc2F)c1"
  Cat: "Y"
- Molecular String: "O=C(O)Cc1ccccc1NC(=O)c1cccc(-c2ccc(Cl)c(O[C@@H]3CCCNC3)c2F)c1"
  Cat: "Y"
- Molecular String: "O=C(O)Cc1cc(F)ccc1NC(=O)c1cccc(-c2ccc(Cl)c(O[C@@H]3CCCNC3)c2F)c1"
  Cat: "Y"
- Molecular String: "O=C(O)Cc1cc(F)ccc1NC(=O)c1cccc(-c2cc(O[C@@H]3CCCNC3)c(Cl)cc2F)c1F"
  Cat: "Y"
- Molecular String: "O=C(O)Cc1ccccc1NC(=O)c1cccc(-c2ccc(Cl)cc2)c1F"
  Cat: "Y"
- Molecular String: "O=C(O)Cc1ccccc1NC(=O)c1cccc(-c2ccc(Cl)c(O[C@@H]3CCCNC3)c2)c1F"
  Cat: "N"

###

# Method Notes: Octanol-water distribution coefficient, log D of the compound by shake flask method
# Format: physicochemical
Threshold 2. logD below it: True. logD at it or above: False.

- Molecule: "O=C(O)Cc1ccccc1NC(=O)c1cccc(-c2ccc(Cl)c(OC3CCNCC3)c2)c1"
  Cat: "False"
- Molecule: "O=C(O)Cc1ccccc1NC(=O)c1cccc(-c2ccc(Cl)c(OC3CCCNC3)c2)c1 (configuration not stated)"
  Cat: "False"
- Molecule: "O=C(Nc1ccccc1C(=O)O)c1cccc(-c2ccc(Cl)cc2)c1"
  Cat: "False"
- Molecule: "NCc1cc(-c2cccc(C(=O)Nc3ccccc3CC(=O)O)c2)ccc1Cl"
  Cat: "False"
- Molecule: "O=C(O)Cc1ccccc1NC(=O)c1cccc(-c2ccc(Cl)c(OC3CCNC3)c2)c1 (configuration not stated)"
  Cat: "False"
- Molecule: "O=C(O)Cc1ccccc1NC(=O)c1cccc(-c2ccc(Cl)cc2)c1F"
  Cat: "True"
- Molecule: "O=C(O)CC(NC(=O)c1cccc(-c2ccc(Cl)cc2)c1)c1cccnc1 (configuration not stated)"
  Cat: "True"
- Molecule: "O=C(O)Cc1ccccc1NC(=O)c1cccc(-c2ccc(Cl)c(OC3CNC3)c2)c1"
  Cat: "False"
- Molecule: "CN1CCN(Cc2ccc(-c3cccc(C(=O)Nc4ccccc4CC(=O)O)c3)cc2)CC1"
  Cat: "True"
- Molecule: "NCCOc1cc(-c2cccc(C(=O)Nc3ccccc3CC(=O)O)c2)ccc1Cl"
  Cat: "False"
- Molecule: "O=C(O)C[C@H](NC(=O)c1cccc(-c2ccc(Cl)cc2)c1)c1cccnc1"
  Cat: "True"
- Molecule: "O=C(O)Cc1ccccc1NC(=O)c1cccc(-c2ccc(Cl)cc2)c1"
  Cat: "True"

###

We begin with a simple list: items and their reported bioavailability.
# Method Notes: Oral bioavailability in C57BL/6 mouse measured after 0.25 to 24 hrs by LC-MS/MS analysis
# Format: ADME, organism-based
# Experimental Conditions: in vivo, time 0.25-24 hrs
Assay Endpoint: bioavailability

- Molecular String: "O=C(O)Cc1ccccc1NC(=O)c1cccc(-c2ccc(Cl)c(O[C@@H]3CCCNC3)c2)c1F"
  Assay Endpoint: "bioavailability"
  Result: "46%"
- Molecular String: "O=C(O)Cc1cc(F)ccc1NC(=O)c1cccc(-c2ccc(Cl)c(O[C@@H]3CCCNC3)c2F)c1"
  Assay Endpoint: "bioavailability"
  Result: "93%"
- Molecular String: "O=C(O)Cc1ccccc1NC(=O)c1cccc(-c2ccc(Cl)c(O[C@@H]3CCCNC3)c2F)c1"
  Assay Endpoint: "bioavailability"
  Result: "81%"
- Molecular String: "O=C(O)Cc1ccccc1NC(=O)c1cccc(-c2ccc(Cl)cc2)c1F"
  Assay Endpoint: "bioavailability"
  Result: "95%"
- Molecular String: "O=C(O)Cc1cc(F)ccc1NC(=O)c1cccc(-c2cc(O[C@@H]3CCCNC3)c(Cl)cc2F)c1F"
  Assay Endpoint: "bioavailability"
  Result: "74%"
- Molecular String: "O=C(O)Cc1cc(F)ccc1NC(=O)c1cccc(-c2cc(O[C@@H]3CCCNC3)c(Cl)cc2F)c1"
  Assay Endpoint: "bioavailability"
  Result: "137%"
